Target: Myo1C^35-ΔTH1 (acto·Myo1C^35-ΔTH1) (Homo sapiens, UniProt O00159)
Construct: 35-residue N-terminal extension + motor domain + 3 IQ motifs + post-IQ; C-terminal 176-residue TH1 domain replaced by C-terminal octa-histidine tag; coproduced with human calmodulin in baculovirus/Sf9; with Calmodulin-1; Actin, alpha skeletal muscle (Gallus gallus, chicken pectoralis major muscle F-actin, pyrene-labeled)
Sequence (O00159 1-887, stated change not applied): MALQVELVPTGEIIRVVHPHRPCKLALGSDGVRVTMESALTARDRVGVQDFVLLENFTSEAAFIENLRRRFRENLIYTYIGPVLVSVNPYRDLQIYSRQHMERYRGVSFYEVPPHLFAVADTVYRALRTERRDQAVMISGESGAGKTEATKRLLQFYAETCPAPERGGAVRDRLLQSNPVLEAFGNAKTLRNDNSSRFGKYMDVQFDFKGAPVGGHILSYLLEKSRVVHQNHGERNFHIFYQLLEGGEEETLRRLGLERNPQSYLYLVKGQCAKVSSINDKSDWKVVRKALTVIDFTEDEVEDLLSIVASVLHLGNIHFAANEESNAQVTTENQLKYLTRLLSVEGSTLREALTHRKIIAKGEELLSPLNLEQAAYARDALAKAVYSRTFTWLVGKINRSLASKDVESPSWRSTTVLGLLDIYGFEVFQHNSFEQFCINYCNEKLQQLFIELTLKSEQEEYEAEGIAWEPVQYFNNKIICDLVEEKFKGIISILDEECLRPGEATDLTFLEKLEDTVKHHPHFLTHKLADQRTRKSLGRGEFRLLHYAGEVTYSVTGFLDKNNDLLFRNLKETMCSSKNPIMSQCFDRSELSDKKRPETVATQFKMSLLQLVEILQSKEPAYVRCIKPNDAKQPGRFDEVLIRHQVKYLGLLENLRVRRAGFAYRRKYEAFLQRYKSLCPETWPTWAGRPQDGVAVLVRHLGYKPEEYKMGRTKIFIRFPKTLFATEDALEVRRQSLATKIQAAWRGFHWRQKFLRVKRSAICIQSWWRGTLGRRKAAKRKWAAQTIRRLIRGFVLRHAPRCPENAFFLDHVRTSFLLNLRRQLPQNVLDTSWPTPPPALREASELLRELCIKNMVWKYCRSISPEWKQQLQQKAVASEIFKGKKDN
Test: stopped-flow, ATP-induced dissociation from pyrene-labeled F-actin, fast phase
Format: binding
QUANTITY_NAME: Kd

Consider the compound shown here: Nc1ncnc2c1ncn2[C@@H]1O[C@H](COP(=O)(O)OP(=O)(O)OP(=O)(O)O)[C@@H](O)[C@H]1O What is its recorded Kd?
405 µM

* * *

Biological target: Myo1C^35-ΔTH1 (acto·Myo1C^35-ΔTH1) (Homo sapiens, UniProt O00159)
Construct: 35-residue N-terminal extension + motor domain + 3 IQ motifs + post-IQ; C-terminal 176-residue TH1 domain replaced by C-terminal octa-histidine tag; coproduced with human calmodulin in baculovirus/Sf9; with Calmodulin-1; Actin, alpha skeletal muscle (Gallus gallus, chicken pectoralis major muscle F-actin, pyrene-labeled)
Assay: stopped-flow, ADP inhibition of ATP-induced dissociation from pyrene-labeled F-actin, slow-phase amplitude fraction
Type: binding
QUANTITY_NAME: Kd (nM)
Write down the numeric answer in nM and omit the unit.

Write down the reported Kd of Nc1ncnc2c1ncn2[C@@H]1O[C@H](COP(=O)(O)OP(=O)(O)O)[C@@H](O)[C@H]1O [ADP] , test system: Myo1C^35-ΔTH1 (acto·Myo1C^35-ΔTH1) (Homo sapiens, UniProt O00159).
230
